biological target: human recombinant A3 adenosine receptor (Homo sapiens); experiment: Human cloned A3 receptor binding, [3H] MRE3008-F20, CHO cells; set-up: expressed in transfected cells; host or cells: CHO; details: CHO cells, [3H] MRE3008-F20; read-out: hA3 (Ki)
A collection of compounds and their measured Ki
// return numeric value only (unit: nM, not printed)

Please review the entries below; each comes with its answer.
>>> print(df.to_string())
                  compound_structure_string  assay_readout  result_unit  assay_result
0  Cn1cc2c(nc(NC(=O)Nc3ccc(S(=O)(=O)N4CCOCC4)cc3)n3nc(-c4ccco4)nc23)n1             Ki           nM          2.47
1  CN1CCN(S(=O)(=O)c2ccc(NC(=O)Nc3nc4nn(C)cc4c4nc(-c5ccco5)nn34)cc2)CC1             Ki           nM            29

Here's the next entry for you.
Ask: Answer with the recorded Ki for the compound listed here: CCn1cc2c(nc(NC(=O)Nc3ccc(OC)cc3)n3nc(-c4ccco4)nc23)n1
Result: 0.28

---

biological target: human recombinant A3 adenosine receptor (Homo sapiens, UniProt P0DMS8); experiment: Human cloned A3 adenosine receptor binding assay, [125I]AB-MECA, HEK-293 membranes; parameters: USA; host or cells: HEK-293; conditions: selectivity ratio of Ki values
Sequence (P0DMS8 whole entry): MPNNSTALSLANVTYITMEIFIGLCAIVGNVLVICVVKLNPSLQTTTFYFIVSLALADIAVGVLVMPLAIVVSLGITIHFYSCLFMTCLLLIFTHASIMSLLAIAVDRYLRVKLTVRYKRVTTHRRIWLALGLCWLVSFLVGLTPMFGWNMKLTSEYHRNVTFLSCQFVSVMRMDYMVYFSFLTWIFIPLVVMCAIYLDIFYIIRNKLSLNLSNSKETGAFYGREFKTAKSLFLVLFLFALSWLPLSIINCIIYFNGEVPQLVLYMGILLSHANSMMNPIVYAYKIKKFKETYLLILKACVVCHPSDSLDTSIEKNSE
Assay Readout: rA2A/hA3
Could you respond with only the numeric value?

Please review the entries below; each comes with its answer.
>>> print(df.to_string())
                                   compound                          target_or_system  assay_readout  assay_result
0  CCCn1cc2c(nc(N)n3nc(-c4ccco4)nc23)n1 [Compound 36]  human recombinant A3 adenosine receptor (Homo sapiens, UniProt P0DMS8)       rA2A/hA3          0.03
1  O=C(Nc1cccc(Cl)c1)Nc1nc2nn(CCCc3ccccc3)cc2c2nc(-c3ccco3)nn12 [Compound 56]  human recombinant A3 adenosine receptor (Homo sapiens, UniProt P0DMS8)       rA2A/hA3            75
2  CC(C)CCn1cc2c(nc(NC(=O)Cc3ccccc3)n3nc(-c4ccco4)nc23)n1 [Compound 58]  human recombinant A3 adenosine receptor (Homo sapiens, UniProt P0DMS8)       rA2A/hA3             4
3  Cn1cc2c(nc(N)n3nc(-c4ccco4)nc23)n1 [Compound 34]  human recombinant A3 adenosine receptor (Homo sapiens, UniProt P0DMS8)       rA2A/hA3          0.05

Ask: Answer with the recorded rA2A/hA3 for the compound listed here: CCCCn1cc2c(nc(N)n3nc(-c4ccco4)nc23)n1 [Compound 37]
Result: 0.003

---

target: rA1 adenosine receptor (Rattus norvegicus, UniProt P25099); construct: membranes of rat brain (150-200 μg- of protein/assay); from tissue; host or cells: whole brain of male Wistar rats; assay: Rat A1 adenosine receptor binding assay, [3H]CHA displacement, rat brain membranes
Sequence (P25099 whole entry): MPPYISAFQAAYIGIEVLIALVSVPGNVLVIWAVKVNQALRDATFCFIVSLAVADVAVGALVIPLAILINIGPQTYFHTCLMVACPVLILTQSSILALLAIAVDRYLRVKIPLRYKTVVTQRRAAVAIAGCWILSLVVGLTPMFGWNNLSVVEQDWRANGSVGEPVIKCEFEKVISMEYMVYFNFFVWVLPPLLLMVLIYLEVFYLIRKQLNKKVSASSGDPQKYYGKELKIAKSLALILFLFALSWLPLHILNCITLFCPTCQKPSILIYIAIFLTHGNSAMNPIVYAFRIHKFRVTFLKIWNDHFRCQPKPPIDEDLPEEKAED
Assay Readout: Ki (µM)
// return numeric value only (unit: µM, not printed)

Please review the entries below; each comes with its answer.
In [3]: df
Out[3]:
                                   molecule  assay_result
0  CCCCn1cc2c(nc(NC(=O)Nc3ccc(OC)cc3)n3nc(-c4ccco4)nc23)n1 [Compound 49]           2.1
1  O=C(Cc1ccccc1)Nc1nc2nn(CCCc3ccccc3)cc2c2nc(-c3ccco3)nn12 [Compound 59]         0.345
2  CCCn1cc2c(nc(NC(=O)Nc3cccc(Cl)c3)n3nc(-c4ccco4)nc23)n1 [Compound 46]          1.58
3  CC(C)CCn1cc2c(nc(NC(=O)Nc3cccc(Cl)c3)n3nc(-c4ccco4)nc23)n1 [Compound 50]          1.65
4  CCCCn1cc2c(nc(N)n3nc(-c4ccco4)nc23)n1 [Compound 37]        0.0263
5  COc1ccc(NC(=O)Nc2nc3nn(CCCc4ccccc4)cc3c3nc(-c4ccco4)nn23)cc1 [Compound 57]          1.51

Ask: Answer with the recorded Ki for the molecule listed here: CCCn1cc2c(nc(N)n3nc(-c4ccco4)nc23)n1 [Compound 36]
Result: 0.139

Ask: Answer with the recorded Ki for the molecule listed here: Nc1nc2nn(CCCc3ccccc3)cc2c2nc(-c3ccco3)nn12 [Compound 41]
Result: 0.0111

Ask: Answer with the recorded Ki for the molecule listed here: CCn1cc2c(nc(NC(=O)Nc3cccc(Cl)c3)n3nc(-c4ccco4)nc23)n1 [Compound 44]
Result: 2.7

Ask: Answer with the recorded Ki for the molecule listed here: CCCCn1cc2c(nc(NC(=O)Nc3cccc(Cl)c3)n3nc(-c4ccco4)nc23)n1 [Compound 48]
Result: 1.52

Ask: Answer with the recorded Ki for the molecule listed here: CCn1cc2c(nc(N)n3nc(-c4ccco4)nc23)n1 [Compound 35]
Result: 0.0951

Ask: Answer with the recorded Ki for the molecule listed here: Cn1cc2c(nc(NC(=O)Nc3cccc(Cl)c3)n3nc(-c4ccco4)nc23)n1 [Compound 42]
Result: 5.05

Ask: Answer with the recorded Ki for the molecule listed here: COc1ccc(NC(=O)Nc2nc3nn(CC=C(C)C)cc3c3nc(-c4ccco4)nn23)cc1 [Compound 53]
Result: 5.3

Ask: Answer with the recorded Ki for the molecule listed here: CC(C)=CCn1cc2c(nc(N)n3nc(-c4ccco4)nc23)n1 [Compound 39]
Result: 0.0101

Ask: Answer with the recorded Ki for the molecule listed here: Nc1nc2nn(CCc3ccccc3)cc2c2nc(-c3ccco3)nn12 [Compound 40]
Result: 0.00216

---

biological target: human recombinant A2A adenosine receptors (Homo sapiens, UniProt P29274); construct: expressed in transfected cells; host or cells: CHO; test: Human cloned A2A receptor binding, [3H]-SCH58261, CHO cells; details: read-out: hA2A (Ki)
Sequence (P29274 whole entry): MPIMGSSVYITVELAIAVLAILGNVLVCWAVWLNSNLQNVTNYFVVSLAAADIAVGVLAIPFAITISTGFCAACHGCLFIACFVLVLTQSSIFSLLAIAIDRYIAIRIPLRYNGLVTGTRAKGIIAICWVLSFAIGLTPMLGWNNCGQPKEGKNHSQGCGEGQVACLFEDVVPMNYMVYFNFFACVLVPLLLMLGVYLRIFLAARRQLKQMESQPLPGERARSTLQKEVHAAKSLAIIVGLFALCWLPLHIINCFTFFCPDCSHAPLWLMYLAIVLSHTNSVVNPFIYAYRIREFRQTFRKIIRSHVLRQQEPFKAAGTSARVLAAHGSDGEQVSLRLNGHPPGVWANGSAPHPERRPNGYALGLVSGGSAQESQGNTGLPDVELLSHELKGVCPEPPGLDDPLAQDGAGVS
Structures can show the parent of a compound that is named as a salt.
Assay Readout: pKi
Friendly reminder that pKi comes from taking -log10 of the concentration in mol/L.

Please review the entries below; each comes with its answer.
In [3]: df
Out[3]:
                                   molecule                          target_or_system  assay_readout  assay_result
0  CCN(CC)c1ccc(NC(=O)Nc2nc3nn(C)cc3c3nc(-c4ccco4)nn23)cc1 [Compound 102, hydrochloride]  human recombinant A2A adenosine receptors (Homo sapiens, UniProt P29274)            pKi          6.23
1  Cn1cc2c(nc(NC(=O)Nc3ccncc3)n3nc(-c4ccco4)nc23)n1  human recombinant A2A adenosine receptors (Homo sapiens, UniProt P29274)            pKi          7.22
2  CCn1cc2c(nc(NC(=O)Nc3ccc(OC)cc3)n3nc(-c4ccco4)nc23)n1  human recombinant A2A adenosine receptors (Homo sapiens, UniProt P29274)            pKi          5.98

Ask: Answer with the recorded pKi for the molecule listed here: CCCn1cc2c(nc(NC(=O)Nc3ccc(OC)cc3)n3nc(-c4ccco4)nc23)n1
Result: 6.85

Ask: Answer with the recorded pKi for the molecule listed here: CCN(CC)c1ccc(NC(=O)Nc2nc3nn(C)cc3c3nc(-c4ccco4)nn23)cc1 [Compound 101]
Result: 6.28

Ask: Answer with the recorded pKi for the molecule listed here: Cn1cc2c(nc(NC(=O)Nc3ccc(S(=O)(=O)N4CCOCC4)cc3)n3nc(-c4ccco4)nc23)n1
Result: 5.85

---

target: rA2A adenosine receptor (Rattus norvegicus); construct: membranes of rat striatum (80-100 μmg of protein/assay); from tissue; host or cells: striatum of male Wistar rats; assay: Rat A2A adenosine receptor binding assay, [3H]SCH58261 displacement, rat striatum membranes; details: rat striatum membranes, [3H]SCH58261; read-out: rA2A (Ki)
Sequence (P30543 whole entry): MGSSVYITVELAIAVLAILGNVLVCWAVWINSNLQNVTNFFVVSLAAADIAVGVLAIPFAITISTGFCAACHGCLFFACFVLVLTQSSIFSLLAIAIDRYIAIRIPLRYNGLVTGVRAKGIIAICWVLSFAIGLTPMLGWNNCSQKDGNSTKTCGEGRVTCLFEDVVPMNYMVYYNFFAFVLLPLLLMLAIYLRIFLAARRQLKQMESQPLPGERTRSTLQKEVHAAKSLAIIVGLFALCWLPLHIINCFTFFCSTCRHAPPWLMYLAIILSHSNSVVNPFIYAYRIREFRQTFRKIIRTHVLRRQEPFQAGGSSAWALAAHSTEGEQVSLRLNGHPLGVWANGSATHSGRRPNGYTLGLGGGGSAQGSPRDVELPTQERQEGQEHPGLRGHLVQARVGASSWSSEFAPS
Assay Readout: pKi
Friendly reminder that pKi comes from taking -log10 of the concentration in mol/L.

Please review the entries below; each comes with its answer.
>>> df
                                   compound  assay_readout  assay_result
0  CC(C)CCn1cc2c(nc(NC(=O)Nc3cccc(Cl)c3)n3nc(-c4ccco4)nc23)n1 [Compound 50]            pKi          5.92
1  O=C(Nc1cccc(Cl)c1)Nc1nc2nn(CCCc3ccccc3)cc2c2nc(-c3ccco3)nn12 [Compound 56]            pKi          5.49

Ask: Answer with the recorded pKi for the compound listed here: CC(C)CCn1cc2c(nc(NC(=O)Cc3ccccc3)n3nc(-c4ccco4)nc23)n1 [Compound 58]
Result: 6.49

---

target: human recombinant A1 adenosine receptor (Homo sapiens, UniProt P30542); construct: expressed in transfected cells; host or cells: CHO; test: Human cloned A1 receptor binding, [3H]-DPCPX, CHO cells; details: read-out: hA1 (Ki)
Sequence (P30542 whole entry): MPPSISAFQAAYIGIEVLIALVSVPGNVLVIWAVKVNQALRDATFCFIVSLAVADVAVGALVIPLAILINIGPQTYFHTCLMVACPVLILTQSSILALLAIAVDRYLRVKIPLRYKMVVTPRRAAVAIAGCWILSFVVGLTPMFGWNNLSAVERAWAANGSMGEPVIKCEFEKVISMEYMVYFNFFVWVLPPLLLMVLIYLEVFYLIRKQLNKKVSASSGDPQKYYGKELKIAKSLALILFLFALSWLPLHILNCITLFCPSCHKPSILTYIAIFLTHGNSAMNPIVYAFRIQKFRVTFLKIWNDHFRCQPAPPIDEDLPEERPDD
Where a name gives a salt, the structure may show the parent alone.
A collection of molecules and their measured Ki

Please review the entries below; each comes with its answer.
                                   molecule                          target_or_system  assay_result
0  CN1CCN(S(=O)(=O)c2ccc(NC(=O)Nc3nc4nn(C)cc4c4nc(-c5ccco5)nn34)cc2)CC1  human recombinant A1 adenosine receptor (Homo sapiens, UniProt P30542)     > 1000 nM
1  CCN(CC)c1ccc(NC(=O)Nc2nc3nn(C)cc3c3nc(-c4ccco4)nn23)cc1 [Compound 102, hydrochloride]  human recombinant A1 adenosine receptor (Homo sapiens, UniProt P30542)        680 nM
2  CCn1cc2c(nc(NC(=O)Nc3ccc(OC)cc3)n3nc(-c4ccco4)nc23)n1  human recombinant A1 adenosine receptor (Homo sapiens, UniProt P30542)       1030 nM

Ask: Answer with the recorded Ki for the molecule listed here: CN(C)c1ccc(NC(=O)Nc2nc3nn(C)cc3c3nc(-c4ccco4)nn23)cc1 [Compound 103, hydrochloride]
Result: > 10000 nM

Ask: Answer with the recorded Ki for the molecule listed here: Cn1cc2c(nc(NC(=O)Nc3ccncc3)n3nc(-c4ccco4)nc23)n1
Result: 250 nM
